# assay-system: adenosine A1 receptor (Bos taurus, UniProt P28190)
# Sequence (P28190 1-326): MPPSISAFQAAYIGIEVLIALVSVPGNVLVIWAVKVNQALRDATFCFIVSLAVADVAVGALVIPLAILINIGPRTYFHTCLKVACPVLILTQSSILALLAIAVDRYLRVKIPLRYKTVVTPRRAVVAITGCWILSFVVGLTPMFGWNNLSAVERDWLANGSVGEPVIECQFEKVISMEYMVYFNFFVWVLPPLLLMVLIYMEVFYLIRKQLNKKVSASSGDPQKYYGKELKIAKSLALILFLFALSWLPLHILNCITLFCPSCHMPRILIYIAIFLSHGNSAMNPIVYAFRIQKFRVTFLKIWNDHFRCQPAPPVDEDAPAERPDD
pKi: −log10 of the molar value.
endpoint: pKi

Sample records with pKi:
input: Using the record for Cn1cnc2c(N[C@H]3C[C@@H]4C[C@H]3C[C@H]4O)ncnc21 (relative stereo) , state its measured pKi.
output: 7.01

input: Using the record for CCCn1cnc2c(N[C@@H]3C[C@H]4C[C@@H]3C[C@H]4O)ncnc21 (relative stereo) , state its measured pKi.
output: 7.54

(A) CC(C)n1cnc2c(N[C@@H]3C[C@H]4C[C@@H]3C[C@H]4O)ncnc21 (relative stereo)
(B) CN(C)c1nc2c(NC3CCCC3)ncnc2n1C
(C) Cn1cnc2c(N[C@H]3C[C@H]4C[C@@H]3c3ccc(O)cc34)ncnc21 (relative stereo)
(D) Cn1c(N2CCCC2)nc2c(N[C@H]3C[C@H]4CC[C@@H]3C4)ncnc21 (relative stereo)
input: Provide the items ranked by increasing pKi. Present the labels in the sequence the task asks for.
output: A, D, C, B
(A: 6.53, D: 7.72, C: 7.94, B: 8.21)

(a) CN(C)c1nc2c(N[C@@H]3C[C@@H]4CC(=O)[C@H]3C4)ncnc2n1C (relative stereo)
(b) Cn1c(N2CCOCC2)nc2c(N[C@H]3C[C@H]4CC[C@@H]3C4)ncnc21 (relative stereo)
input: Task for the reader: decide whether a or b has the larger pKi. Mark your answer with the label of the selected entry.
output: a
(a: 8.08, b: 7.62)

(I) Cn1cnc2c(NC3CCCC3)ncnc21 [Example 48, N^6-cyclopentyl-9-methyladenine, reference compound]
(II) Cn1cnc2c(NC3CCCCC3)ncnc21 [Example 47, N^6-cyclohexyl-9-methyladenine, reference compound]
(III) Cn1c(Br)nc2c(N[C@H]3C[C@H]4CC(=O)[C@@H]3C4)ncnc21 (relative stereo)
input: Provide the items ranked by increasing pKi. Present the labels in the sequence the task asks for.
output: II, I, III
(II: 7.34, I: 8.00, III: 8.46)

(P) Cn1c(C#N)nc2c(N[C@H]3C[C@H]4CC[C@@H]3C4)ncnc21 (relative stereo)
(Q) Cn1cnc2c(N[C@@H]3C[C@@H]4CC[C@H]3C4)ncnc21 (relative stereo) [Example 49, N^6-(endo-2-norbornyl)-9-methyladenine, reference compound]
(R) Cn1cnc2c(N[C@H]3C[C@H]4C[C@@H]3C[C@@H]4O)ncnc21 (relative stereo)
input: Hello, I need these entries ordered by pKi, highest reading first. Thanks! Present the labels in the sequence the task asks for.
output: P, Q, R

---

# assay-system: adenosine A2 receptor
# protocol: Receptor affinity (radioligand binding), A2, [3H]NECA
# experimental-parameters: room temperature, 1 hour
pKi: −log10 of the molar value.
endpoint: pKi

input: Return reported pKi for target or system adenosine A2 receptor, item Cn1cnc2c(N[C@H]3C[C@@H]4C[C@H]3[C@@H](O)C4)ncnc21 (relative stereo) .
output: 4.50

input: Return reported pKi for target or system adenosine A2 receptor, item Cn1cnc2c(N[C@H]3C[C@H]4C[C@@H]3C[C@H]4O)ncnc21 (relative stereo) .
output: 4.84

(I) COc1ccc2c(c1)[C@H]1C[C@H](Nc3ncnc4c3ncn4C)[C@@H]2C1 (relative stereo)
(II) Cn1cnc2c(N[C@H]3C[C@H]4C[C@@H]3CC4=O)ncnc21 (relative stereo)
input: Task for the reader: decide whether I or II has the larger pKi. Mark your answer with the label of the selected entry.
output: I

(P) CN(C)c1nc2c(N[C@@H]3C[C@@H]4CC(=O)[C@H]3C4)ncnc2n1C (relative stereo)
(Q) CN(C)c1nc2c(N[C@H]3C[C@H]4CC[C@@H]3C4)ncnc2n1C (relative stereo)
input: Task for the reader: decide whether P or Q has the larger pKi. Mark your answer with the label of the selected entry.
output: Q
(Q: 6.21, P: 5.34)

(A) CCCn1cnc2c(N[C@@H]3C[C@H]4C[C@@H]3C[C@H]4O)ncnc21 (relative stereo)
(B) CSc1nc2c(N[C@H]3C[C@H]4CC[C@@H]3C4)ncnc2n1C (relative stereo)
(C) Cn1c(C(N)=O)nc2c(N[C@H]3C[C@H]4CC[C@@H]3C4)ncnc21 (relative stereo)
(D) CN(C)c1nc2c(NC3CCCC3)ncnc2n1C
input: Hello, I need these entries ordered by pKi, highest reading first. Thanks! Present the labels in the sequence the task asks for.
output: B, D, C, A
(B: 6.40, D: 5.87, C: 5.45, A: 5.19)

(P) CSc1nc2c(NC3CCCC3)ncnc2n1C
(Q) Cn1cnc2c(N[C@H]3C[C@@H]4CC(=O)[C@H]3C4)ncnc21 (relative stereo)
input: Task for the reader: decide whether P or Q has the larger pKi. Mark your answer with the label of the selected entry.
output: P

(A) Cn1c(Br)nc2c(N[C@@H]3C[C@H]4C[C@@H]3C[C@@H]4O)ncnc21 (relative stereo)
(B) Cn1c(Br)nc2c(N[C@H]3C[C@@H]4C[C@H]3C[C@@H]4O)ncnc21 (relative stereo)
input: Task for the reader: decide whether A or B has the larger pKi. Mark your answer with the label of the selected entry.
output: B
(B: 7.16, A: 6.18)

---

# assay-system: adenosine A1 receptor (Bos taurus)
# Construct: were homogenized with a Brinkman polytron and the membranes were collected by centrifugation; from tissue; host or cells: bovine caudate membranes
# protocol: Receptor affinity (radioligand binding), A1, [3H]CHA
# Parameters: species or system bovine
# experimental-parameters: radioligand binding, A2 Ki /A1 Ki
# Protocol: 1. Receptor Affinity Experiments (Radioligand Binding) Tissues (bovine caudate, guinea pig cortex, guinea pig striatum) were homogenized with a Brinkman polytron and the membranes were collected by centrifugation at 40,000×g at 4° C. for 10 min. The membranes were washed by resuspension and centrifugation, resuspended, and incubated in the presence of 1 U/ml adenosine deaminase for 15-30 min. at 37° C. […] Assays were terminated by filtration, and the filters were counted in scintillation counters.
endpoint: Selectivity Ratio (A2 Ki /A1 Ki)

input: Using the record for Cn1cnc2c(N[C@H]3C[C@@H]4C[C@H]3[C@@H](O)C4)ncnc21 (relative stereo) , state its measured Selectivity Ratio (A2 Ki /A1 Ki).
output: 371

(1) COc1ccc2c(c1)[C@H]1C[C@H](Nc3ncnc4c3ncn4C)[C@@H]2C1 (relative stereo)
(2) Cn1cnc2c(N[C@H]3C[C@@H]4CC(=O)[C@H]3C4)ncnc21 (relative stereo)
input: Between the entries labeled 1 and 2 , whose measured Selectivity Ratio (A2 Ki /A1 Ki) is lower? Mark your answer with the label of the selected entry.
output: 2

---

# assay-system: adenosine A2 receptor
# protocol: Receptor affinity (radioligand binding), A2, [3H]NECA
# experimental-parameters: room temperature, 1 hour
endpoint: Ki (nM)

input: Using the record for Cn1cnc2c(N[C@@H]3C[C@H]4C[C@@H]3c3ccc(O)cc34)ncnc21 (relative stereo) , state its measured Ki.
output: 631

input: Using the record for COc1nc2c(N[C@H]3C[C@H]4CC[C@@H]3C4)ncnc2n1C (relative stereo) , state its measured Ki.
output: 513

(a) CCN(CC)c1nc2c(NC3CCCC3)ncnc2n1C
(b) Cn1c(C#N)nc2c(N[C@H]3C[C@H]4CC[C@@H]3C4)ncnc21 (relative stereo)
input: Between the entries labeled a and b , whose measured Ki is lower? Mark your answer with the label of the selected entry.
output: a

---

# assay-system: adenosine A2 receptor
# protocol: Receptor affinity (radioligand binding), A2, [3H]NECA
# experimental-parameters: room temperature, 1 hour
endpoint: Ki (µM)

input: Return reported Ki for target or system adenosine A2 receptor, item Cn1cnc2c(NC3CCCCC3)ncnc21 [Example 47, N^6-cyclohexyl-9-methyladenine, reference compound] .
output: 11

(1) Cn1cnc2c(N[C@H]3C[C@@H]4C[C@H]3C[C@@H]4O)ncnc21 (relative stereo) [Example 21]
(2) Cn1cnc2c(N[C@@H]3C[C@H]4C[C@@H]3c3ccccc34)ncnc21 (relative stereo) [Example 39]
input: Between the entries labeled 1 and 2 , whose measured Ki is lower? Mark your answer with the label of the selected entry.
output: 1
(1: 3.16 µM, 2: 15.5 µM)

---

# assay-system: adenosine A2 receptor
# protocol: Receptor affinity (radioligand binding), A2, [3H]NECA
# experimental-parameters: room temperature, 1 hour
# Description: 1. Receptor Affinity Experiments (Radioligand Binding) Tissues (bovine caudate, guinea pig cortex, guinea pig striatum) were homogenized with a Brinkman polytron and the membranes were collected by centrifugation at 40,000×g at 4° C. for 10 min. The membranes were washed by resuspension and centrifugation, resuspended, and incubated in the presence of 1 U/ml adenosine deaminase for 15-30 min. at 37° C. […] Assays were terminated by filtration, and the filters were counted in scintillation counters.
pKi: −log10 of the molar value.
endpoint: pKi

input: Return reported pKi for target or system adenosine A2 receptor, item CC(C)N(C)c1nc2c(N[C@H]3C[C@H]4CC[C@@H]3C4)ncnc2n1C (relative stereo) [Example 13] .
output: 5.98

input: Return reported pKi for target or system adenosine A2 receptor, item CN(C)c1nc2c(N[C@H]3C[C@@H]4C[C@H]3C[C@@H]4O)ncnc2n1C (relative stereo) [Example 18] .
output: 6.56

input: Return reported pKi for target or system adenosine A2 receptor, item CCCCN(C)c1nc2c(N[C@H]3C[C@H]4CC[C@@H]3C4)ncnc2n1C (relative stereo) [Example 11] .
output: 4.96

input: Return reported pKi for target or system adenosine A2 receptor, item Cn1cnc2c(N[C@H]3C[C@H]4C[C@@H]3c3ccc(O)cc34)ncnc21 (relative stereo) [Example 37] .
output: 5.34

input: Return reported pKi for target or system adenosine A2 receptor, item Cn1cnc2c(N[C@H]3C[C@@H]4C[C@H]3C[C@H]4O)ncnc21 (relative stereo) [Example 22] .
output: 4.50

(P) Cn1cnc2c(N[C@H]3C[C@H]4C[C@@H]3C[C@@H]4O)ncnc21 (relative stereo) [Example 30]
(Q) Cn1cnc2c(N[C@H]3C[C@@H]4C[C@H]3[C@H](O)C4)ncnc21 (relative stereo) [Example 24]
input: Between the entries labeled P and Q , whose measured pKi is lower? Mark your answer with the label of the selected entry.
output: P
(P: 4.37, Q: 4.67)
